// reported GI50 per item
Tested on: HOP-62
Assay: NCI tumour cell line growth inhibition, 48 h
Activity calls are given as the source filed them. No stated cut-off is given here; in the data, active = GI50 up to about 1.1 µM and inactive = higher.

>  <molecule>
COc1ccc(C(=O)N2c3ccccc3N(C)n3cccc3C2CC(=O)O)cc1 (stereo unspecified)

>  <GI50>
> 100 µM (inactive)

$$$$
>  <molecule>
CCNC1=C(NC(=O)c2ccc(OC)cc2)C(=O)c2ccccc2C1=O

>  <GI50>
> 100 µM (inactive)

$$$$
>  <molecule>
COc1cc(C2c3cc4c(cc3OC(NCCc3ccccc3)C2C)OCO4)cc(OC)c1OC (stereo unspecified)

>  <GI50>
0.614 µM (active)

$$$$
>  <molecule>
C/C(CN1C(=O)c2ccccc2C1=O)=N\NS(=O)(=O)c1ccc(F)cc1

>  <GI50>
> 100 µM (inactive)

$$$$
>  <molecule>
CN(C(=O)C1CC1)C1C2CN3CCC(O2)C13 (stereo unspecified)

>  <GI50>
> 100 µM (inactive)

$$$$
>  <molecule>
CCc1nc2cc(F)ccc2[nH]c1=O

>  <GI50>
> 100 µM (inactive)

$$$$
>  <molecule>
CCOC(=O)c1ccc(-c2cccs2)[nH]1

>  <GI50>
> 66.4 µM (inactive)

$$$$
>  <molecule>
CS(C)(=O)=N/C=C\C(=O)C(Cl)(Cl)Cl

>  <GI50>
99.1 µM (inactive)

$$$$
>  <molecule>
CC(=O)OCc1cc(CCC(=O)NCCNc2c3ccccc3nc3ccccc23)cc(COC(C)=O)c1O[Si](C)(C)C(C)(C)C

>  <GI50>
13.6 µM (inactive)

$$$$
>  <molecule>
OC(c1ccoc1)c1cc2ccccc2s1 (stereo unspecified)

>  <GI50>
> 10 µM (inactive)

$$$$
>  <molecule>
O=C1c2ccccc2CC12Cc1cc3c(cc1C2=O)CCC3 (stereo unspecified)

>  <GI50>
> 100 µM (inactive)

$$$$
>  <molecule>
COc1ccc(C2CC(c3ccc4ccccc4c3O)=NN2)cc1OC (stereo unspecified)

>  <GI50>
54.6 µM (inactive)

$$$$
>  <molecule>
O=C(O)CCNc1ncc2c(n1)-c1ccccc1OC2

>  <GI50>
> 100 µM (inactive)

$$$$
>  <molecule>
COC1CC(OS(=O)(=O)c2ccc(C)cc2)C(OC(=O)c2ccccc2)C(C)O1 (stereo unspecified)

>  <GI50>
> 10 µM (inactive)

$$$$
>  <molecule>
O=c1cc(N2CCOCC2)n2c(ccc3ccccc32)n1

>  <GI50>
> 100 µM (inactive)

$$$$
>  <molecule>
O=C(/C=C/c1ccccc1O)c1cccnc1

>  <GI50>
> 100 µM (inactive)

$$$$
>  <molecule>
CN(C)CCCNC(=O)CCNC(=O)c1cc(NC(=O)c2cc(NC(=O)c3cc(NC(=O)c4nc(NC(=O)CCCNC(=O)c5cc(NC(=O)c6cc(NC(=O)c7cc(NC(=O)c8nccn8C)cn7C)cn6C)cn5C)cn4C)cn3C)cn2C)cn1C

>  <GI50>
> 100 µM (inactive)

$$$$
>  <molecule>
Cn1c(-c2cccc(N)c2)[n+](C)c2ccccc21

>  <GI50>
> 100 µM (inactive)

$$$$
>  <molecule>
C=C(C)C1CC[C@]2(C(=O)O)CCC3(C)[C@H](CCC4[C@@]5(C)CC[C@H](OC6OC(CO)C(O)C6OC6OC(C)C(O)C(O)C6O)[C@@](C)(CO)C5CC[C@]43C)C12 (stereo partly specified)

>  <GI50>
> 100 µM (inactive)

$$$$
>  <molecule>
COc1cc(C2NCCC(c3ccccc3)(c3ccccc3)N2)cc(OC)c1OC (stereo unspecified)

>  <GI50>
34 µM (inactive)

$$$$
>  <molecule>
NS(=O)(=O)c1cccc(NC(=S)NC(=O)Nc2ccc(Cl)c(Cl)c2)c1

>  <GI50>
15.5 µM (inactive)

$$$$
